Target: CDK7/CyclinH/MAT1 (Homo sapiens (Human), UniProt P50613)
Sequence (P50613 whole entry): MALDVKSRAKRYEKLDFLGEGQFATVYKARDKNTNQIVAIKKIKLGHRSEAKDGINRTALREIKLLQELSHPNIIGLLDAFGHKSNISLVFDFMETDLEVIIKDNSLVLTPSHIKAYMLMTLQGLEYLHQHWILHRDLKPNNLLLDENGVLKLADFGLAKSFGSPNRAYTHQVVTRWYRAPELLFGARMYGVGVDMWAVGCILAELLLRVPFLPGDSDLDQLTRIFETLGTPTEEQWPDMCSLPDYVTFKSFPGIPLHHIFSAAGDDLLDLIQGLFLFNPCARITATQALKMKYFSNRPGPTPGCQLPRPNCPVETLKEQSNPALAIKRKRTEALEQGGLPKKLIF
Sequence (P51946 whole entry partner): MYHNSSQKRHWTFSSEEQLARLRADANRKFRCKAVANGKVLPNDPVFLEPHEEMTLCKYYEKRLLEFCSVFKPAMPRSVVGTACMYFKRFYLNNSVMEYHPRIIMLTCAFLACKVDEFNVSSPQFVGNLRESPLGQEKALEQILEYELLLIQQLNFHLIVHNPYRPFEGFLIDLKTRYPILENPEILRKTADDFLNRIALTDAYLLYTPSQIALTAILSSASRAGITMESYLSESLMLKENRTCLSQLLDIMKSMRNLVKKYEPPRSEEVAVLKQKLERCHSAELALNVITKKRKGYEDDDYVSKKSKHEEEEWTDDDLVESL
Sequence (P51948 whole entry partner): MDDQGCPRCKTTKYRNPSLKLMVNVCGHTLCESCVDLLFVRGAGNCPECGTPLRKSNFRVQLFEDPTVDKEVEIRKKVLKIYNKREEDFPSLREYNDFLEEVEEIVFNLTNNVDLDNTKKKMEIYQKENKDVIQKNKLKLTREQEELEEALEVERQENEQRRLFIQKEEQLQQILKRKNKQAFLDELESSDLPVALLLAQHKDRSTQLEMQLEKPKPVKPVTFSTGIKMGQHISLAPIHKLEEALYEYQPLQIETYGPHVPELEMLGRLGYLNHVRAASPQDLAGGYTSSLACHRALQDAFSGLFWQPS
Experiment: CDK7/CyclinH/MAT1 kinase inhibitory activity (Caliper mobility shift)
pIC50: −log10 of the molar value.
MEASUREMENT_LABEL: pIC50

The cases that follow already have their pIC50 on record.
| COMPOUND | pIC50 |
| --- | --- |
| [2H]C([2H])([2H])NS(=O)(=O)c1ccc(Nc2ncc(C)c(OC3CCCC3O)n2)cc1 (single isomer, unassigned) [Example 148a] | ≤ 6.00 |
| CC1(O)CC(F)(F)CC1Oc1nc(NC2CCN(S(=O)(=O)CC3CC3)CC2)ncc1C#N (single isomer, unassigned) [Example 44b] | 7.00 to 8.00 |
| [2H]C1([2H])CC(O)C(Oc2nc(Nc3ccc(S(=O)(=O)NC([2H])([2H])[2H])cc3)ncc2C(F)(F)F)C1 (single isomer, unassigned) [Example 110a] | 6.00 to 7.00 |

Which pIC50 value belongs to [2H]C([2H])([2H])NS(=O)(=O)c1ccc(Nc2ncc(C(F)(F)F)c(OC3CCOCCC3O)n2)cc1 (single isomer, unassigned) [Example 102b] ?
6.00 to 7.00

Using the record for NS(=O)(=O)c1ccc(Nc2ncc(C(F)(F)F)c(OC3CCOCC3O)n2)cc1 (single isomer, unassigned) [Example 114a] , report its pIC50.
6.00 to 7.00

Given the entry CC1(O)COCCC1Oc1nc(NC2CCN(S(C)(=O)=O)CC2)ncc1C(F)(F)F (single isomer, unassigned) [Example 124a] , report its measured pIC50.
> 8.00

I'd like to know its pIC50. The compound in question is CC1(COc2nc(NC3CCN(S(N)(=O)=O)CC3)ncc2C#N)CCCC1 [Example 56]
6.00 to 7.00

Record request: pIC50 value, item C[C@]1(O)COC[C@H]1Oc1nc(NC2CCN(S(C)(=O)=O)CC2)ncc1C(F)(F)F (relative stereo) [Example 104a]
7.00 to 8.00

----------
Biological target: CDK2/CyclinE1 (Homo sapiens (Human), UniProt P24941)
Experiment: CDK2/CyclinE1 kinase inhibitory activity (Caliper mobility shift)
Conditions: read-out: CDK2/Cyclin El IC50
IC50 reference

Examples with answers:
| MOLECULE | IC50 |
| --- | --- |
| Cc1cnc(Nc2ccc(S(N)(=O)=O)cc2)nc1O[C@@H]1CCC[C@@H]1O (single isomer, unassigned) [Example 132b] | 10 to 100 nM |
| CC1(O)CCCC1Oc1nc(NC2CCN(S(=O)(=O)C(F)(F)F)CC2)ncc1C#N (single isomer, unassigned) [Example 42a] | < 10 nM |
| NS(=O)(=O)N1CCC(Nc2ncc(C(F)(F)F)c(OC3CCCCCC3O)n2)CC1 (single isomer, unassigned) [Example 122b] | < 10 nM |

Give the measured IC50 of CC1(COc2nc(Nc3ccc(S(N)(=O)=O)cc3)ncc2C#N)CCCCC1 [Example 14] .
10 to 100 nM

Record request: IC50 value, item N#Cc1cnc(Nc2ccc(S(N)(=O)=O)cc2)nc1N1CCC[C@H](CO)C1 [Example 78]
< 10 nM

I am curious: what IC50 value has been reported for CC1(COc2nc(NC3CCN(S(C)(=O)=O)CC3)ncc2C(F)(F)F)CCCC1 [Example 128] ?
< 10 nM

Could you share which IC50 value was measured for CC1(O)CCCC1Oc1nc(NC2CCN(S(=O)(=O)CC(F)(F)F)CC2)ncc1C#N (single isomer, unassigned) [Example 43b] ?
10 to 100 nM

Bench note: what IC50 did N#Cc1cnc(Nc2ccc(S(N)(=O)=O)cc2)nc1OCC1(CO)CCCC1 [Example 15] show?
< 10 nM

Request the reported IC50 associated with Cn1cc(S(=O)(=O)N2CCC(Nc3ncc(C#N)c(OCC4(C)CC(F)(F)C4)n3)CC2)cn1 [Example 61]
< 10 nM

Given the molecule [2H]C([2H])([2H])NS(=O)(=O)c1ccc(Nc2ncc(CC)c(OC3CCOCC3O)n2)cc1 (single isomer, unassigned) [Example 151b] , what is its reported IC50?
10 to 100 nM

----------
Target: CDK6/CyclinD1 (Homo sapiens (Human), UniProt Q00534)
Sequence (Q00534 whole entry): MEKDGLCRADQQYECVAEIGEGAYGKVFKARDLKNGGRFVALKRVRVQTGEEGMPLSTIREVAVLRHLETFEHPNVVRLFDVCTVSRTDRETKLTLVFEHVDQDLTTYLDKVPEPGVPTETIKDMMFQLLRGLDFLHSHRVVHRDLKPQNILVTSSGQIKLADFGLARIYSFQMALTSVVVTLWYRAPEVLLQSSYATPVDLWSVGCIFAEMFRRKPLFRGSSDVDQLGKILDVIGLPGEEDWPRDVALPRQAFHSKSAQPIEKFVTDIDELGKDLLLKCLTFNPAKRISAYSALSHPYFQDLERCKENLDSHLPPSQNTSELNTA
Sequence (P24385 whole entry partner): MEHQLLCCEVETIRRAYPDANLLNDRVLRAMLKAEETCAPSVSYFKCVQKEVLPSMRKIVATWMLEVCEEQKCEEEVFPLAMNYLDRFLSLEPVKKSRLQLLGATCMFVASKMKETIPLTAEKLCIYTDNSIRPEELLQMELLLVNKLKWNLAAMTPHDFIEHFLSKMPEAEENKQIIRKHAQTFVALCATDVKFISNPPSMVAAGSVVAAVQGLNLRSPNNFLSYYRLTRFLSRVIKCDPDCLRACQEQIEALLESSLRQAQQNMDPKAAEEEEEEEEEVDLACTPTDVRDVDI
Test: CDK6/CyclinD1 kinase inhibitory activity (Caliper mobility shift)
Conditions: read-out: CDK6/Cyclin D1 IC50
The molecules listed here are annotated with their IC50.

Known IC50 results, listed for orientation:
| MOLECULE | IC50 |
| --- | --- |
| CC1(COc2nc(Nc3ccc(S(N)(=O)=O)cc3)ncc2C#N)CCCCC1 [Example 14] | ≥ 1000 nM |
| [2H]C([2H])([2H])NS(=O)(=O)c1ccc(Nc2ncc(C(F)(F)F)c(O[C@H]3CCCOC[C@H]3O)n2)cc1 (single isomer, unassigned) [Example 103a] | 100 to 1000 nM |
| CC1(O)CCCC1Oc1nc(NC2CCN(S(=O)(=O)CC3CCOC3)CC2)ncc1C#N (single isomer, unassigned) [Example 40b] | 10 to 100 nM |
| CC1(O)COCCC1Oc1nc(NC2CCN(S(C)(=O)=O)CC2)ncc1C#N (single isomer, unassigned) [Example 45a] | 10 to 100 nM |
| NS(=O)(=O)c1ccc(Nc2ncc(C(F)(F)F)c(OC3CCOCC3O)n2)cc1 (single isomer, unassigned) [Example 114a] | 100 to 1000 nM |
| C=Cc1cnc(Nc2ccc(S(N)(=O)=O)cc2)nc1OC1CCCC1O (single isomer, unassigned) [Example 155a] | 10 to 100 nM |
| Cn1cc(S(=O)(=O)N2CCC(Nc3ncc(C(F)(F)F)c(OC4CCOCC4(C)O)n3)CC2)cn1 (single isomer, unassigned) [Example 125a] | < 10 nM |

IC50 of N#Cc1cnc(Nc2ccc(S(N)(=O)=O)cc2)nc1-c1ccc(O)cc1 [Example 92] on CDK6/CyclinD1 (Homo sapiens (Human), UniProt Q00534)?
100 to 1000 nM

----------
The entries below are paired with their reported IC50.
Molecular target: CDK9/CyclinT1 (Homo sapiens (Human))
Sequence (P50750 whole entry): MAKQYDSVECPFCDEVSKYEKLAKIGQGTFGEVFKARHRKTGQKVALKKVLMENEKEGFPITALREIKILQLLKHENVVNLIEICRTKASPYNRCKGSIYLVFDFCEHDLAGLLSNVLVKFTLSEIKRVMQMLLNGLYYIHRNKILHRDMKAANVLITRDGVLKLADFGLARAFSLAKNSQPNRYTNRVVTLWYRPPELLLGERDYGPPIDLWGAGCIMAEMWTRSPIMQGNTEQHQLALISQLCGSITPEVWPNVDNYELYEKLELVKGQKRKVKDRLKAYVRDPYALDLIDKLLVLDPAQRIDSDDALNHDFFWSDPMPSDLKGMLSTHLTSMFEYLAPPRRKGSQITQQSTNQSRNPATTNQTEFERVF
Sequence (O60563 whole entry partner): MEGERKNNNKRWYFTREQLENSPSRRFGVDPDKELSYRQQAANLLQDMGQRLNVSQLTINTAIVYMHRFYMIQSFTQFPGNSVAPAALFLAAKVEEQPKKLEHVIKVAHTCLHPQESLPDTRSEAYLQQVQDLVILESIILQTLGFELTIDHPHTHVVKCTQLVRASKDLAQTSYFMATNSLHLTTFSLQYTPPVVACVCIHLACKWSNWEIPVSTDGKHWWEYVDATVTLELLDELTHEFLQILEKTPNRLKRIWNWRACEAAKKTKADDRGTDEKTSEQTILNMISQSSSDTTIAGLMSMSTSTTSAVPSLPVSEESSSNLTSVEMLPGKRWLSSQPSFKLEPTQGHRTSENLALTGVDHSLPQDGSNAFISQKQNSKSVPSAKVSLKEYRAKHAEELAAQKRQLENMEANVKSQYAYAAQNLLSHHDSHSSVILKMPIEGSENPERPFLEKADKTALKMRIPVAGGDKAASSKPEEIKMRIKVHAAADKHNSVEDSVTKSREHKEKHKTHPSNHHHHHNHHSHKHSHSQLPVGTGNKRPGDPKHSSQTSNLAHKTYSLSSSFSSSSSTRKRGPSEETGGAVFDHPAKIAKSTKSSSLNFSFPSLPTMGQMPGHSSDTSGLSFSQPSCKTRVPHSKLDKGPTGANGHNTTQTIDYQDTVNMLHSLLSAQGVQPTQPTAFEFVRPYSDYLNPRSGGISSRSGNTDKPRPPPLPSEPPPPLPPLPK
Test: CDK9/CyclinT1 kinase inhibitory activity (Caliper mobility shift)
Conditions: read-out: CDK9/Cyclin T1 IC50

| COMPOUND | IC50 |
| --- | --- |
| Cn1cc(S(=O)(=O)N2CCC(Nc3ncc(C#N)c(O[C@@H]4CCC(F)(F)C[C@]4(C)O)n3)CC2)cn1 (relative stereo) | 100 to 1000 nM |
| NS(=O)(=O)N1CCC(Nc2ncc(C(F)(F)F)c(OC3CCCCCC3O)n2)CC1 (single isomer, unassigned) [Example 122b] | 10 to 100 nM |
| CC(C)NS(=O)(=O)c1ccc(Nc2ncc(C#N)c(OC3CCCC3(C)O)n2)cc1 (single isomer, unassigned) [Example 35a] | 10 to 100 nM |
| N#Cc1cnc(Nc2ccc(S(N)(=O)=O)cc2)nc1N1CCCC1 | 100 to 1000 nM |
| CC1(O)CCCC1Oc1nc(NC2CCN(S(=O)(=O)CF)CC2)ncc1C#N (single isomer, unassigned) [Example 37b] | ≥ 1000 nM |

IC50 for N#Cc1cnc(Nc2ccc(S(N)(=O)=O)cc2)nc1OCC1CCCC1 ?
10 to 100 nM

Which IC50 is listed for O=S(=O)(NC1CC1)c1ccc(Nc2ncc(C(F)(F)F)c(OC3CCCC3O)n2)cc1 (single isomer, unassigned) [Example 107b] ?
100 to 1000 nM

Quick check: IC50 of [2H]C([2H])([2H])NS(=O)(=O)c1ccc(Nc2ncc(C(F)(F)F)c(OC3CCCC3O)n2)cc1 (single isomer, unassigned) [Example 109b] ?
100 to 1000 nM

Any idea what its IC50 is? The compound is CC1(O)CCCCC1Oc1nc(Nc2ccc(S(N)(=O)=O)cc2)ncc1C#N (single isomer, unassigned) [Example 24a]
< 10 nM

IC50 lookup needed for N#Cc1cnc(Nc2ccc(S(N)(=O)=O)cc2)nc1OC1CCCC1O (single isomer, unassigned) [Example 20b] , thanks.
100 to 1000 nM

Value lookup for IC50; key = Cc1cnc(Nc2ccc(S(=O)(=O)NC3CC3)cc2)nc1OC1CCCC1O (single isomer, unassigned) [Example 146b]
≥ 1000 nM

----------
Listed compounds paired with reported IC50
Biological target: CDK4/Cyclin D1 (Homo sapiens (Human))
Sequence (P11802 whole entry): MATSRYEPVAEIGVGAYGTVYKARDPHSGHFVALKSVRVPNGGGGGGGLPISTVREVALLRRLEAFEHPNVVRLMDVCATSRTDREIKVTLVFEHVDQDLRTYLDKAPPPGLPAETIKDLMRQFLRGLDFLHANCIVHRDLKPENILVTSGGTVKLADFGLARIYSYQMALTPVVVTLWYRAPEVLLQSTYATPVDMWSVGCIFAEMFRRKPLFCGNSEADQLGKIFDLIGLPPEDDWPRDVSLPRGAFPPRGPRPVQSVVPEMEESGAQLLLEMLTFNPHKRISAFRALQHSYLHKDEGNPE
Sequence (P24385 whole entry partner): as the sequence (P24385 whole entry partner) above
Experiment: CDK4/CyclinD1 kinase inhibitory activity (Caliper mobility shift)

Here's what some known entries look like.
| COMPOUND | IC50 |
| --- | --- |
| Cc1cccc(-c2nc(Nc3ccc(S(N)(=O)=O)cc3)ncc2C#N)c1 [Example 94] | 10 to 100 nM |
| CC1(O)CCCC1Oc1nc(Nc2ccc(S(N)(=O)=O)cc2)ncc1C#N (single isomer, unassigned) [Example 23a] | 10 to 100 nM |
| Cn1ccc(S(=O)(=O)N2CCC(Nc3ncc(C#N)c(OCC4(C)CCCC4)n3)CC2)n1 [Example 63] | < 10 nM |
| N#Cc1cnc(Nc2ccc(S(N)(=O)=O)cc2)nc1OC1CCCCCC1O (single isomer, unassigned) [Example 22a] | 10 to 100 nM |
| CC1(O)CCCC1Oc1nc(NC2CCN(S(=O)(=O)CF)CC2)ncc1C#N (single isomer, unassigned) [Example 37a] | < 10 nM |

Return reported IC50; argument: CC1(O)CCCC1Oc1nc(Nc2ccc(S(N)(=O)=O)cc2)ncc1C1CC1 (single isomer, unassigned) [Example 154a]
10 to 100 nM

For the compound CC1(O)COCCC1Oc1nc(NC2CCN(S(C)(=O)=O)CC2)ncc1C#N (single isomer, unassigned) [Example 45b] , what IC50 is on record?
100 to 1000 nM

Entry CS(=O)(=O)N1CCC(Nc2ncc(C(F)(F)F)c(OC3CCCCC3O)n2)CC1 (single isomer, unassigned) [Example 120a] has what IC50?
10 to 100 nM
